Please respond with reported Activity for every item in the list.
Tested on: Salmonella typhimurium
Experiment: Induction of mutagenicity in Salmonella Typhimurium YG1042 assessed as number of revertant per nmol after 48 hrs relative to metranidazole
Assay type: toxicity, organism-based
Details: salmonella enterica subsp. enterica serovar typhimurium
Respond using a number only.

Activity recorded for this compound, Cc1nc(CS(=O)(=O)c2ccc(Br)cc2)c([N+](=O)[O-])n1C , is 0.15

Activity recorded for this compound, Cc1nc(CS(=O)(=O)c2ccc(Cl)cc2)c([N+](=O)[O-])n1CCO , is 0.06

Activity recorded for this compound, Cn1cnc(CS(=O)(=O)c2ccc(F)cc2)c1[N+](=O)[O-] , is 0.56

Activity recorded for this compound, Cc1nc(CS(=O)(=O)c2ccccc2)c([N+](=O)[O-])n1CCO , is 0.03

Activity recorded for this compound, Cc1nc(CS(=O)(=O)c2ccccc2)c([N+](=O)[O-])n1C , is 0.26

Activity recorded for this compound, Cc1nc(CS(=O)(=O)c2ccc(Br)cc2)c([N+](=O)[O-])n1CC(C)O (stereo unspecified) , is 0.02

Activity recorded for this compound, Cc1nc(CS(=O)(=O)c2ccc(F)cc2)c([N+](=O)[O-])n1C , is 0.09

Activity recorded for this compound, Cc1nc(CS(=O)(=O)c2ccc(Br)cc2)c([N+](=O)[O-])n1CCO , is 0.04

Activity recorded for this compound, Cc1ncc([N+](=O)[O-])n1C , is 2.64

Activity recorded for this compound, Cc1ncc([N+](=O)[O-])n1CC(C)O (stereo unspecified) , is 0.28

Activity recorded for this compound, Cn1cnc(CS(=O)(=O)c2ccc(Br)cc2)c1[N+](=O)[O-] , is 0.7

###

Please respond with reported Activity for every item in the list.
Test system: Salmonella typhimurium
Test: Induction of mutagenicity in Salmonella Typhimurium YG1042 assessed as number of revertant per nmol after 48 hrs
Type: toxicity, organism-based
Details: salmonella enterica subsp. enterica serovar typhimurium

Activity recorded for this compound, Cn1cnc(CS(=O)(=O)c2ccc(Br)cc2)c1[N+](=O)[O-] , is 59.22

Activity recorded for this compound, Cc1nc(CS(=O)(=O)c2ccc(Br)cc2)c([N+](=O)[O-])n1C , is 12.32

Activity recorded for this compound, Cc1nc(CS(=O)(=O)c2ccc(Br)cc2)c([N+](=O)[O-])n1CCO , is 3.73

Activity recorded for this compound, Cc1nc(CS(=O)(=O)c2ccc(Cl)cc2)c([N+](=O)[O-])n1C , is 8.31

Activity recorded for this compound, Cn1cnc(CS(=O)(=O)c2ccccc2)c1[N+](=O)[O-] , is 49.69

###

Tested on: Salmonella typhimurium
Test: Induction of mutagenicity in Salmonella Typhimurium TA100 assessed as number of revertant per nmol after 48 hrs
Assay type: toxicity, organism-based
Conditions: salmonella enterica subsp. enterica serovar typhimurium
MEASUREMENT_TYPE: Activity
Respond using a number only.

Activity recorded for this compound, Cc1nc(CS(=O)(=O)c2ccccc2)c([N+](=O)[O-])n1CCO , is 0.56

Activity recorded for this compound, Cc1ncc([N+](=O)[O-])n1CC(C)O (stereo not drawn) [SECNIDAZOLE] , is 4.77

Activity recorded for this compound, Cc1ccc(S(=O)(=O)Cc2nc(C)n(CC(C)O)c2[N+](=O)[O-])cc1 (stereo not drawn) , is 0.73

Activity recorded for this compound, Cc1nc(CS(=O)(=O)c2ccccc2)c([N+](=O)[O-])n1CC(C)O (stereo not drawn) , is 0.88

Activity recorded for this compound, Cc1nc(CS(=O)(=O)c2ccccc2)c([N+](=O)[O-])n1C , is 8.24

Activity recorded for this compound, Cn1cncc1[N+](=O)[O-] , is 15.48

Activity recorded for this compound, Cc1nc(CS(=O)(=O)c2ccc(Br)cc2)c([N+](=O)[O-])n1CC(C)O (stereo not drawn) , is 1.41

Activity recorded for this compound, Cc1ncc([N+](=O)[O-])n1C [DIMETRIDAZOLE] , is 21.71

###

Tested on: Salmonella typhimurium
Assay: Induction of mutagenicity in Salmonella Typhimurium TA100 assessed as number of revertant per ug after 48 hrs
Format: toxicity, organism-based
Details: salmonella enterica subsp. enterica serovar typhimurium
Please respond with reported Activity for every item in the list.
Respond using a number only.

Activity recorded for this molecule, Cc1nc(CS(=O)(=O)c2ccc(Cl)cc2)c([N+](=O)[O-])n1CCO , is 6.22

Activity recorded for this molecule, Cc1nc(CS(=O)(=O)c2ccc(F)cc2)c([N+](=O)[O-])n1C , is 4.72

Activity recorded for this molecule, Cc1nc(CS(=O)(=O)c2ccc(F)cc2)c([N+](=O)[O-])n1CCO , is 1.91

Activity recorded for this molecule, Cc1nc(CS(=O)(=O)c2ccc(Cl)cc2)c([N+](=O)[O-])n1C , is 7.15

Activity recorded for this molecule, Cn1cnc(CS(=O)(=O)c2ccc(Cl)cc2)c1[N+](=O)[O-] , is 139.44

Activity recorded for this molecule, Cc1nc(CS(=O)(=O)c2ccccc2)c([N+](=O)[O-])n1C , is 27.91

Activity recorded for this molecule, Cc1nc(CS(=O)(=O)c2ccc(Br)cc2)c([N+](=O)[O-])n1CC(C)O (stereo not drawn) , is 3.36

Activity recorded for this molecule, Cn1cnc(CS(=O)(=O)c2ccc(Br)cc2)c1[N+](=O)[O-] , is 41.41

###

Please respond with reported Activity for every item in the list.
Test system: Salmonella typhimurium
Experiment: Induction of mutagenicity in Salmonella Typhimurium YG1042 assessed as number of revertant per ug after 48 hrs
Type: toxicity, organism-based
Conditions: salmonella enterica subsp. enterica serovar typhimurium
Respond using a number only.

The value of Activity recorded for Cc1ncc([N+](=O)[O-])n1CC(C)O (centres undefined) [SECNIDAZOLE] when tested on Salmonella typhimurium reads 128.44

The value of Activity recorded for Cc1ccc(S(=O)(=O)Cc2nc(C)n(CC(C)O)c2[N+](=O)[O-])cc1 (centres undefined) when tested on Salmonella typhimurium reads 6.76

The value of Activity recorded for Cn1cncc1[N+](=O)[O-] when tested on Salmonella typhimurium reads 1551.06

The value of Activity recorded for Cc1nc(CS(=O)(=O)c2ccc(Cl)cc2)c([N+](=O)[O-])n1CC(C)O (centres undefined) when tested on Salmonella typhimurium reads 3.72

The value of Activity recorded for Cn1cnc(CS(=O)(=O)c2ccc(Cl)cc2)c1[N+](=O)[O-] when tested on Salmonella typhimurium reads 167.38

The value of Activity recorded for Cc1nc(CS(=O)(=O)c2ccc(Br)cc2)c([N+](=O)[O-])n1CCO when tested on Salmonella typhimurium reads 9.123

The value of Activity recorded for Cc1nc(CS(=O)(=O)c2ccccc2)c([N+](=O)[O-])n1CCO when tested on Salmonella typhimurium reads 8.36

The value of Activity recorded for Cc1ccc(S(=O)(=O)Cc2nc(C)n(C)c2[N+](=O)[O-])cc1 when tested on Salmonella typhimurium reads 54.97

The value of Activity recorded for Cn1cnc(CS(=O)(=O)c2ccc(Br)cc2)c1[N+](=O)[O-] when tested on Salmonella typhimurium reads 164.42

The value of Activity recorded for Cc1ccc(S(=O)(=O)Cc2ncn(C)c2[N+](=O)[O-])cc1 when tested on Salmonella typhimurium reads 185.37

The value of Activity recorded for Cc1nc(CS(=O)(=O)c2ccc(Br)cc2)c([N+](=O)[O-])n1CC(C)O (centres undefined) when tested on Salmonella typhimurium reads 3.08

The value of Activity recorded for Cc1nc(CS(=O)(=O)c2ccc(Br)cc2)c([N+](=O)[O-])n1C when tested on Salmonella typhimurium reads 32.91

The value of Activity recorded for Cc1nc(CS(=O)(=O)c2ccc(F)cc2)c([N+](=O)[O-])n1CCO when tested on Salmonella typhimurium reads 10.09

The value of Activity recorded for Cc1nc(CS(=O)(=O)c2ccccc2)c([N+](=O)[O-])n1C when tested on Salmonella typhimurium reads 74.18

###

Tested on: Salmonella typhimurium
Assay: Induction of mutagenicity in Salmonella Typhimurium YG1042 assessed as number of revertant per nmol after 48 hrs
Type: toxicity, organism-based
Conditions: salmonella enterica subsp. enterica serovar typhimurium
Please respond with reported Activity for every item in the list.
Respond using a number only.

Activity recorded for this compound, Cn1cncc1[N+](=O)[O-] , is 197.14

Activity recorded for this compound, Cc1nc(CS(=O)(=O)c2ccccc2)c([N+](=O)[O-])n1CC(C)O (configuration not stated) , is 3.65

Activity recorded for this compound, Cc1nc(CS(=O)(=O)c2ccccc2)c([N+](=O)[O-])n1C , is 21.91

Activity recorded for this compound, Cc1ncc([N+](=O)[O-])n1C [DIMETRIDAZOLE] , is 222.71

Activity recorded for this compound, Cc1nc(CS(=O)(=O)c2ccc(Br)cc2)c([N+](=O)[O-])n1CC(C)O (configuration not stated) , is 1.29

Activity recorded for this compound, Cc1ccc(S(=O)(=O)Cc2nc(C)n(CCO)c2[N+](=O)[O-])cc1 , is 2.08

Activity recorded for this compound, Cc1nc(CS(=O)(=O)c2ccc(Cl)cc2)c([N+](=O)[O-])n1CCO , is 5.3

Activity recorded for this compound, Cc1nc(CS(=O)(=O)c2ccc(F)cc2)c([N+](=O)[O-])n1CCO , is 3.46

Activity recorded for this compound, Cc1ccc(S(=O)(=O)Cc2nc(C)n(CC(C)O)c2[N+](=O)[O-])cc1 (configuration not stated) , is 2.39

Activity recorded for this compound, Cc1nc(CS(=O)(=O)c2ccc(F)cc2)c([N+](=O)[O-])n1C , is 7.6

Activity recorded for this compound, Cc1nc(CS(=O)(=O)c2ccc(Cl)cc2)c([N+](=O)[O-])n1CC(C)O (configuration not stated) , is 1.39

Activity recorded for this compound, Cc1nc(CS(=O)(=O)c2ccccc2)c([N+](=O)[O-])n1CCO , is 2.72

meta.source: ChEMBL document CHEMBL1153877
